molecular target: Cytochrome P450 3A4 (Homo sapiens, UniProt P08684); assay: Inhibition of recombinant human CYP3A4 using midazolam as substrate; assay type: ADME
Sequence (P08684 whole entry): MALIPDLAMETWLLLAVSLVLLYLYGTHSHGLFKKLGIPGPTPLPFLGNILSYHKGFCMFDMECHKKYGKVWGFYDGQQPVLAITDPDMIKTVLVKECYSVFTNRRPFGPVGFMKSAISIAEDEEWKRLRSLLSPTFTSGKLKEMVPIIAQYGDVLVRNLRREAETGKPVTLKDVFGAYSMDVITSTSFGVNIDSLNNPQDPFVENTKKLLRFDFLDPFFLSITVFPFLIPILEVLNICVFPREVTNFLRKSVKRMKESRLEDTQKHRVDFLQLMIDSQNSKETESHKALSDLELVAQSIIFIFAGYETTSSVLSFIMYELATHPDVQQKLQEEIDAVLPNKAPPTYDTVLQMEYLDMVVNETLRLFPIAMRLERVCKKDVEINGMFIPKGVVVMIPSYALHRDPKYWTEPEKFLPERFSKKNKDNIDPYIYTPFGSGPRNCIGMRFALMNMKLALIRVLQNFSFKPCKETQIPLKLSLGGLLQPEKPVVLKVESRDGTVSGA
Quantity Name: IC50 (µM)

[[record]]
molecule = "CS(=O)(=O)n1cc2c(n1)CN([C@@H]1C[C@H](N)[C@@H](c3cc(F)ccc3F)O[C@@H]1C(F)(F)F)C2 [COFROGLIPTIN]"
obs_value = 45.8


###

molecular target: CYP2C9 (Homo sapiens, UniProt P11712); assay: Stability assessed as recombinant human CYP2C9 mediated compound metabolism by measuring parent compound remaining after 30 mins relative to control; type: ADME; details: read-out: Stability
Sequence (P11712 whole entry): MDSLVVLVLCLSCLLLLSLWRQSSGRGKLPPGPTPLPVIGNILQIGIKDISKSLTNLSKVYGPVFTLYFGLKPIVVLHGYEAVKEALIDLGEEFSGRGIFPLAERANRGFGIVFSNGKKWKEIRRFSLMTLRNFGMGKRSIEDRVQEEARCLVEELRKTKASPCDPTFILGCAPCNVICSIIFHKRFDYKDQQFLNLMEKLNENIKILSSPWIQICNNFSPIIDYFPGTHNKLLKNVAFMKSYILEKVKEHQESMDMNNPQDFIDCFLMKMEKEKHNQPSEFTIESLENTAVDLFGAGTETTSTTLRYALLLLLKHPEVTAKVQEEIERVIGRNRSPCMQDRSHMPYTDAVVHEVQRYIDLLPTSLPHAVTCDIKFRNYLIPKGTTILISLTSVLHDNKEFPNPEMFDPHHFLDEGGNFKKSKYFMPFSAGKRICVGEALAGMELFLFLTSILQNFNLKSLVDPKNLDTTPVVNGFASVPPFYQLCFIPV
Quantity Name: remaining at 0.5 h

[[record]]
smiles_string = "CS(=O)(=O)n1cc2c(n1)CN([C@@H]1C[C@H](N)[C@@H](c3cc(F)ccc3F)O[C@@H]1C(F)(F)F)C2"
obs_value = "> 95%"

